target.desc: hTAAR1 (Homo sapiens, UniProt Q96RJ0)
Construct: Full length human TAAR1 (hTAAR1, NM_138327.1) was subcloned; first 20 amino acids of bovine rhodopsin (N); expressed in transfected cells; host or cells: HEK293, transient transfection, vector pcDps
Sequence (Q96RJ0 1-339): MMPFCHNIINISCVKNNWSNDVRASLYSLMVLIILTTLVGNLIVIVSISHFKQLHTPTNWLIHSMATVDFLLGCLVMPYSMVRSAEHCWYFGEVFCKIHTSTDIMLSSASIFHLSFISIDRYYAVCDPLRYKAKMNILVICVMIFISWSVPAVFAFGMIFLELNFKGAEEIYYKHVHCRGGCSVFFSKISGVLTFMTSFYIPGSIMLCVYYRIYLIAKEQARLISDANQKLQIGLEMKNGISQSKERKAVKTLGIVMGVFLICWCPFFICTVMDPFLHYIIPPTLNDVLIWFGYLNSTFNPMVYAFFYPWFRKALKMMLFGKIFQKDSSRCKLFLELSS
test.details: cAMP accumulation (AlphaScreen) in HEK293 cells transiently transfected with hTAAR1
Format: cell-based
measure: EC50 (nM)
State the answer as a number, implicitly in nM.

Task: Param item = NCCc1ccc(O)cc1 ; retrieve measured EC50.
Output: 1540

Entry source: paper PMC3205048
